B1: KCNA3 (parent)
chain: GERVVINISGLRFETQLKTLCQFP

- Variants of: B1
- test-details: protein stability index of a GFP-peptide fusion (GPS, HEK-293T) (PSI 1-6); higher = more stable;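 further: lentivirally expressed fusions sorted by FACS into six bins by GFP to DsRed ratio, PSI derived from sequencing read proportions per bin multiplied by bin number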
- cond: c terminus: a fixed tail appended
I'd appreciate it if you could label each record using protein stability index and these ranges: one = under 2, two = from 2 up to 3, three = 3 and over

Some solved cases for reference:
biosequence: GERVCINISGLRFETQLKTLCQFP [V5C]
assigned-label: two

biosequence: GERVVINISGLRFETQLKTLCAFP [Q22A]
assigned-label: one

biosequence: GERVVINISGLRFETQLKHLCQFP [T19H]
assigned-label: one

Attention now turns to another entry.
Input line: Which protein stability index band matches GERVVINISGLRFETQLKTLCQFL [P24L] ?
Output line: two
